- Species: Rattus norvegicus
- assay_notes: Selectivity ratio, IC50 for Imidazoline receptor 1 in Sprague-Dawley rat kidney membrane to Ki for Imidazoline receptor 2 in Sprague-Dawley rat whole brain membrane
- Format: cell membranes
reported_metric: Ratio

Observe how each entry below is paired with its result.
QUERY: Fill in: Ratio of c1ccc2c(CCC3=NCCN3)cccc2c1 is ___
RESULT: 22300

QUERY: Fill in: Ratio of c1cncc(CCC2=NCCN2)c1 is ___
RESULT: 512

QUERY: // lookup Ratio for c1ccc(-c2ccccc2CCC2=NCCN2)cc1
RESULT: 40

QUERY: Record request: Ratio value, item c1csc(CCC2=NCCN2)c1
RESULT: 373

QUERY: Item Cc1ccccc1CCC1=NCCN1 has what recorded Ratio?
RESULT: 4380

QUERY: Item c1c[nH]c(CCC2=NCCN2)c1 has what recorded Ratio?
RESULT: 94

QUERY: Which Ratio is reported for this molecule? c1ccc(CCC2=NCCN2)cc1
RESULT: 1480

QUERY: I'd like to know its Ratio. The molecule in question is O=[N+]([O-])c1cccc(-c2ccccc2CCC2=NCCN2)c1
RESULT: 16

QUERY: # input molecule: c1ccc(-c2ccsc2)c(CCC2=NCCN2)c1 ; wanted: its Ratio
RESULT: 775

A. C1CCC(CCC2=NCCN2)CC1
B. Oc1ccccc1CCC1=NCCN1
C. Clc1ccccc1CCC1=NCCN1
QUERY: Ascending by Ratio, please. Sort the labels as requested; that list is your answer.
RESULT: B, A, C
(B: 99.3, A: 744, C: 2840)
